Test system: Influenza A virus
Assay: Antiviral activity against influenza A virus H5N1 infected in dog MDCK cells assessed as viral growth inhibition
Format: functional, organism-based
READOUT_NAME: IC50 (µM)
Give the quantity in µM, number only.

>  <SMILES>
O=C(OC[C@H]1O[C@@H](Oc2ccc(O)cc2C(=O)O)[C@H](O)[C@@H](OC(=O)c2cc(O)c(O)c(O)c2)[C@@H]1O)c1cc(O)c(O)c(O)c1

>  <SCALE_UNIT>
µM

>  <IC50>
11.6

$$$$
>  <SMILES>
O=C(OC[C@H]1O[C@@H](Oc2ccc(O)cc2C(=O)O)[C@H](OC(=O)c2cc(O)c(O)c(O)c2)[C@@H](O)[C@@H]1O)c1cc(O)c(O)c(O)c1

>  <SCALE_UNIT>
µM

>  <IC50>
21.1

$$$$

Next, consider the following molecule.
QUERY: Need IC50 of O=C(O[C@H]1[C@H](Oc2ccc(O)cc2C(=O)O)O[C@H](CO)[C@@H](O)[C@@H]1OC(=O)c1cc(O)c(O)c(O)c1)c1cc(O)c(O)c(O)c1 , thanks.
RESULT: 24.6

Reference source: ChEMBL document CHEMBL5537109
